Please go through the items and note down their pIC50.
Biological target: UniProt Q9NR97
Assay: TLR8 inhibition reporter assay (HEK-Blue cells, SEAP reporter, R848 stimulation)
Conditions: HEK-Blue cells overexpressing human TLR8, SEAP reporter, R848 15.9 μM
pIC50: −log10 of the molar value.

Exercise: Output pIC50 of CC(C)c1c(-c2ccnc3[nH]ncc23)[nH]c2ccc(C3CCN(C4C[C@H]5CC[C@@H](C4)N5C)CC3)cc12 (stereo partly shown) [Example 829]
Solution: > 7.00

Exercise: Output pIC50 of CC(C)c1c(-c2ccc3nc(N)cn3c2)[nH]c2ccc(C3CCNCC3)cc12 [Example 116]
Solution: 6.00 to 7.00

Exercise: Output pIC50 of CCN(CC)C(=O)C1CCCN(CC(=O)N2CCC(c3ccc4[nH]c(-c5ccnc6[nH]ncc56)c(C(C)C)c4c3)CC2)C1 (stereo not shown) [Example 588]
Solution: > 7.00

Exercise: Output pIC50 of CCc1c(-c2ccnc3[nH]ncc23)[nH]c2ccc(C3CCNCC3F)cc12 (stereo not shown) [Example 177]
Solution: > 7.00

Exercise: Output pIC50 of CCc1c(-c2ccc3[nH]c(=O)oc3c2)[nH]c2ccc(C3CCNCC3)cc12 [Example 167]
Solution: 6.00 to 7.00

Exercise: Output pIC50 of Cc1cc(-c2[nH]c3ccc(C4CCN(CC(=O)N(C)C)CC4)cc3c2C(C)C)cc2cn(C)nc12 [Example 379]
Solution: > 7.00

Exercise: Output pIC50 of CC(C)c1c(-c2ccc3cc[nH]c3c2)[nH]c2ccc(C3CCNCC3)cc12 [Example 65]
Solution: 4.30 to 6.00

Exercise: Output pIC50 of Cc1c(C2CCNCC2)ccc2[nH]c(-c3ccnc4[nH]ncc34)c(C)c12 [Example 256]
Solution: > 7.00

Exercise: Output pIC50 of CC(C)c1c(-c2ccnc3[nH]ncc23)[nH]c2ccc(C3CCN(C(=O)CN4CC[C@H](N(C)C)C4)CC3)cc12 [Example 590]
Solution: > 7.00

Exercise: Output pIC50 of CC(C)c1c(-c2ccnc3[nH]ncc23)[nH]c2ccc(C3CCN(Cc4cn5ccccc5n4)CC3)cc12 [Example 862]
Solution: > 7.00

Exercise: Output pIC50 of CNC(=O)CN1CCC(c2ccc3[nH]c(-c4cc(C)c5oc(=O)n(C)c5c4)c(C(C)C)c3c2)CC1 [Example 336]
Solution: 6.00 to 7.00

Exercise: Output pIC50 of Cc1cc(-c2[nH]c3ccc(C4CCN(CC(=O)N(C)C)CC4)cc3c2C(C)C)cn2cc(C(=O)N(C)CCO)nc12 [Example 344]
Solution: > 7.00

Exercise: Output pIC50 of CCc1c(-c2ccc3oc(=O)[nH]c3c2)[nH]c2ccc(C3CCNCC3)cc12 [Example 168]
Solution: 6.00 to 7.00

###

Target: human TLR9 (Homo sapiens)
Experiment: TLR9 inhibition reporter assay (HEK-Blue cells, SEAP reporter, ODN2006 stimulation)
Conditions: HEK-Blue cells overexpressing human TLR9, SEAP reporter, ODN2006 5 nM
assay_metric: IC50

Exercise: Output IC50 of Cc1cc(-c2[nH]c3ccc(C4CCNCC4)cc3c2C(C)C)c2[nH]c(C)cc2n1 [Example 40]
Solution: 0.1 to 1 µM

Exercise: Output IC50 of Cc1cc2nc(-c3[nH]c4ccc(C5CCNCC5)cc4c3C(C)C)c(F)cn2n1 [Example 148]
Solution: 1 to 50 µM

Exercise: Output IC50 of CC(C)c1c(-c2ccnc3[nH]ncc23)[nH]c2ccc(C3CCN(C(=O)CN4CC[C@@H](O)C4)CC3)cc12 [Example 579]
Solution: 0.1 to 1 µM

Exercise: Output IC50 of CC(C)c1c(-c2ccnc3[nH]ncc23)[nH]c2ccc(C3CCN(Cc4ncc[nH]4)CC3)cc12 [Example 914]
Solution: 1 to 50 µM

Exercise: Output IC50 of Cc1cn2cc(-c3[nH]c4ccc(C5CCN(C(=O)C[C@@H](C)O)CC5)cc4c3CC(F)F)ccc2n1 [Example 609]
Solution: 1 to 50 µM

Exercise: Output IC50 of CNCCN1CCC(c2ccc3[nH]c(-c4ccc5c(ccn5C)c4)c(C)c3c2)CC1 [Example 672]
Solution: 0.1 to 1 µM

Exercise: Output IC50 of Cc1cc(-c2[nH]c3ccc(C4CCNCC4)cc3c2C(C)C)cn2c(C)cnc12 [Example 121]
Solution: 1 to 50 µM

###

Biological target: human TLR9 (Homo sapiens, UniProt Q9NR96)
Construct: host or cells: HEK-Blue cells (HEK293-derived reporter line)
Sequence (Q9NR96 26-1032): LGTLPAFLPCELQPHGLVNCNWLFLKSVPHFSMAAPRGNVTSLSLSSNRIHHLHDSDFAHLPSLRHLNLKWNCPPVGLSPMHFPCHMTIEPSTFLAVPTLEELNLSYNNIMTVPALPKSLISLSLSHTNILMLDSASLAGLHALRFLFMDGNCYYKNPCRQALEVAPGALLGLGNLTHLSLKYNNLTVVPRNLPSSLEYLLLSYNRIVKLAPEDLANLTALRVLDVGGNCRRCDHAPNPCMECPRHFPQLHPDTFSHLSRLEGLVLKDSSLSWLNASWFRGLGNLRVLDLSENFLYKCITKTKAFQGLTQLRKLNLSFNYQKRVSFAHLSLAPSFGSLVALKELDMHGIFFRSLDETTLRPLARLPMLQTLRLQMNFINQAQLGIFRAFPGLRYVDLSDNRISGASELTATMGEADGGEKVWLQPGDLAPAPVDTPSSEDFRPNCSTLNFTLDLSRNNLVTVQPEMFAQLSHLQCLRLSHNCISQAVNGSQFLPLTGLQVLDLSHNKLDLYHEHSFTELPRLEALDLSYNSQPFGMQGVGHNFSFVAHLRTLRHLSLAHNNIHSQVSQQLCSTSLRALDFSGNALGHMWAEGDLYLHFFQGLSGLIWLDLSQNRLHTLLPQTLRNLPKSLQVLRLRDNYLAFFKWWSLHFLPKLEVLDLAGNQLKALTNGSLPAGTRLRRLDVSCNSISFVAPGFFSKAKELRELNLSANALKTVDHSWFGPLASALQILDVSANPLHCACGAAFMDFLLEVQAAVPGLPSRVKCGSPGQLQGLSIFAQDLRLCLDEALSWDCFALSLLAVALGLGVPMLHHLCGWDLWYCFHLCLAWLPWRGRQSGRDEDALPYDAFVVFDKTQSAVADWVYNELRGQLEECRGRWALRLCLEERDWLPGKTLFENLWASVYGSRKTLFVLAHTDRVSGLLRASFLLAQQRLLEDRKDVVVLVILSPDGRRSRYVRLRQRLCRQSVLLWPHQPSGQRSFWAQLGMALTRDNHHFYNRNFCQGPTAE
Experiment: TLR9 inhibition reporter assay (HEK-Blue cells, SEAP reporter, ODN2006 stimulation)
Assay type: cell-based
Conditions: HEK-Blue cells overexpressing human TLR9, SEAP reporter, ODN2006 5 nM
assay_metric: IC50

Exercise: Output IC50 of CC(C)c1c(-c2ccnc3[nH]ncc23)[nH]c2ccc(C3CCN(C4CCNCC4)CC3)cc12
Solution: 100 to 1000 nM

Exercise: Output IC50 of Cc1cc(-c2[nH]c3ccc(C4CCN(CC(N)=O)CC4)cc3c2C(C)C)cc2cccnc12
Solution: 1000 to 50000 nM

Exercise: Output IC50 of CCc1c(-c2c[nH]c3ncncc23)[nH]c2ccc(C3CCNCC3)cc12
Solution: 1000 to 50000 nM

Exercise: Output IC50 of FC(F)Cc1c(-c2ccnc3[nH]ccc23)[nH]c2ccc(C3CCNCC3)cc12
Solution: 100 to 1000 nM

Exercise: Output IC50 of COc1cc(-c2[nH]c3ccc(C4CCN(C(=O)CN(C)C)CC4)cc3c2C(C)C)cc2nc(C)cn12
Solution: 100 to 1000 nM

Exercise: Output IC50 of CC(C)c1c(-c2ccnc3[nH]ncc23)[nH]c2ccc(C3CCN(C4CCOCC4)CC3)cc12
Solution: 1000 to 50000 nM

Exercise: Output IC50 of CCc1c(-c2ccc3[nH]c(=O)[nH]c3c2)[nH]c2ccc(C3CCNCC3)cc12
Solution: 1000 to 50000 nM

Exercise: Output IC50 of Cc1c(-c2ccnc3cc[nH]c23)[nH]c2ccc(C3CCNCC3)cc12
Solution: 100 to 1000 nM

Exercise: Output IC50 of CC(C)c1c(-c2ccc3nncn3n2)[nH]c2ccc(C3CCNCC3)cc12
Solution: 1000 to 50000 nM

Exercise: Output IC50 of Cc1cc(-c2[nH]c3ccc(C4CCN(CC(C)(C)O)CC4)cc3c2C(C)C)cn2ccnc12
Solution: 100 to 1000 nM

Exercise: Output IC50 of COc1c(C)c(-c2[nH]c3ccc(C4CCN(CC(=O)N(C)C)CC4)cc3c2C(C)C)nn2ncnc12
Solution: 1000 to 50000 nM

Exercise: Output IC50 of CC(C)c1c(-c2cn(C)c3c(=O)n(C)ccc23)[nH]c2ccc(C3CCN(CC(=O)N(C)C)CC3)cc12
Solution: 1000 to 50000 nM

Exercise: Output IC50 of CC(C)c1c(-c2ccc3nccn3n2)[nH]c2ccc(C3CCNCC3)cc12
Solution: 1000 to 50000 nM

Exercise: Output IC50 of CCc1c(-c2ccn3cnnc3c2)[nH]c2ccc(C3CCNCC3)cc12
Solution: 100 to 1000 nM

###

Please go through the items and note down their pIC50.
Target: human TLR8 (Homo sapiens, UniProt Q9NR97)
Sequence (Q9NR97 27-1041): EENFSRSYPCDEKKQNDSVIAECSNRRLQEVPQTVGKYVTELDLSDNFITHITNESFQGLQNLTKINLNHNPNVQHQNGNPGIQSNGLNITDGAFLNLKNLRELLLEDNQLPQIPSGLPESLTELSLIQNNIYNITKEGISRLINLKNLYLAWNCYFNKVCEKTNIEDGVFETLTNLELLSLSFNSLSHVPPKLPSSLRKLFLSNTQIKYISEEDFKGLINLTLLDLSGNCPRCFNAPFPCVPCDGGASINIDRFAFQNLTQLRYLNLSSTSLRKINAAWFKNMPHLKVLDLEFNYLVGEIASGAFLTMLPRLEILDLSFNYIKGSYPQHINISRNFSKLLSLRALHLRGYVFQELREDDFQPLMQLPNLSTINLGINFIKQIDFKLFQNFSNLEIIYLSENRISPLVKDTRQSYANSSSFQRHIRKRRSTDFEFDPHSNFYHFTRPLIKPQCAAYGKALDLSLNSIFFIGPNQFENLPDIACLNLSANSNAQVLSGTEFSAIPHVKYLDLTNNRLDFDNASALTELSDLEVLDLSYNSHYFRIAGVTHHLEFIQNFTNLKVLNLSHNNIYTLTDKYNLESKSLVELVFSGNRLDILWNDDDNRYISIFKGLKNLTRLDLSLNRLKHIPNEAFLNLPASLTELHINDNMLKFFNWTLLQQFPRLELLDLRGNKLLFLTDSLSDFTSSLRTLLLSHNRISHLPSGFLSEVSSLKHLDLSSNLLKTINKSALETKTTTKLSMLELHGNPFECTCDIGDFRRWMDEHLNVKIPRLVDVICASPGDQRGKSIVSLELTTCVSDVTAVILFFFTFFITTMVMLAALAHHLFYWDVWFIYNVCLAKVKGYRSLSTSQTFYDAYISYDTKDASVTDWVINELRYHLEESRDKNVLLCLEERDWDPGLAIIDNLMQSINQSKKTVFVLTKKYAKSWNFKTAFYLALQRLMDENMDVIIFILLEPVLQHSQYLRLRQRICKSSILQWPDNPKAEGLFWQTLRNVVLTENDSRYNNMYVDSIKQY
Experiment: TLR8 inhibition reporter assay (HEK-Blue cells, SEAP reporter, R848 stimulation)
Conditions: HEK-Blue cells overexpressing human TLR8, SEAP reporter, R848 15.9 μM
pIC50: −log10 of the molar value.

Exercise: Output pIC50 of CC(C)c1c(-c2cc(F)c3nccn3c2)[nH]c2ccc(C3CCNCC3)cc12
Solution: > 7.00

Exercise: Output pIC50 of CC(C)c1c(-c2ccnc3[nH]ncc23)[nH]c2ccc(C3CCNCC3)cc12
Solution: > 7.00

Exercise: Output pIC50 of CC(C)NC(=O)CN1CCC(c2ccc3[nH]c(-c4ccc5nccn5c4)c(C(C)C)c3c2)CC1
Solution: 6.00 to 7.00

Exercise: Output pIC50 of CCN(CC)CCN1CCC(c2ccc3[nH]c(-c4ccnc5[nH]ncc45)c(C(C)C)c3c2)CC1
Solution: > 7.00

Exercise: Output pIC50 of CCc1c(-c2cnc3ncccn23)[nH]c2ccc(C3CCNCC3)cc12
Solution: > 7.00

Exercise: Output pIC50 of CNC(=O)CN1CCC(c2ccc3[nH]c(-c4cc(C)c5nc(C(=O)N(C)CCO)cn5c4)c(C(C)C)c3c2)CC1
Solution: 6.00 to 7.00
